Data origin: patent US6525022B1

# ASSAYED TARGET: T1, human natriuretic peptide clearance receptor-C (human, UniProt P17342 27-541)
# T1 construct: whole, on cells; also called hNPR-C; human NPR-C
# T1 sequence (looked up): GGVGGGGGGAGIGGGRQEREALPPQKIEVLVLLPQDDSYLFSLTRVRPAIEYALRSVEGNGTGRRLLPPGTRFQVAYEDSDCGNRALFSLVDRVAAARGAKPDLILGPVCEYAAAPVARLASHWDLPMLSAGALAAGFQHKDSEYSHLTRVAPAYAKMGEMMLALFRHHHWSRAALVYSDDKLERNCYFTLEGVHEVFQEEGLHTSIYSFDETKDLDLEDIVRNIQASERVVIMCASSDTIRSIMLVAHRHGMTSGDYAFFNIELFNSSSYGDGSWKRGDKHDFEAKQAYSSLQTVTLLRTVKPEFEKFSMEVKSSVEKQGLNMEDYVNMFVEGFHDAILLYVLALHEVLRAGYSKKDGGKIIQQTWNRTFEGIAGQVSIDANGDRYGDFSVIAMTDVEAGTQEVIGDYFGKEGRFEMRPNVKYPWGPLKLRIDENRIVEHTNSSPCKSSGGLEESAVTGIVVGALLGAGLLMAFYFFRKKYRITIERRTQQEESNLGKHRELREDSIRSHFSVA
# TEST: competition binding, Table I; tracer and receptor format not given
Bridges are numbered along the chain shown (N, C = ends). Where no end group is shown, it is not given here. [ ]: non-standard residue; d: D form. Mpa = O=C(O)CCS
In plain terms, low IC50, meaning strictly below 300 nM, gives Met, and everything else gives Not met.

SLRRSSCFTGSMDRIGAQSGLGCNSFRY (disulfide 7-23, Cys7-Cys23 disulfide; also called hANF(1-28) G9T, R11S) [ANF 50]    Met
SLRRSSC[dA]FTGSIDRIRAQSGLGCNSFRY (disulfide 7-24) [ANF 75]    Not met

Incoming: Report whether reported IC50 is lower than 300 nM (strictly) for SLRRSSCFERPMDRIGAQSGLGCNSFRY (disulfide 7-23, Cys7-Cys23 disulfide; also called hANF(1-28) G9E, G10R, R11P) [ANF 51]
Outgoing: Met

Incoming: Report whether reported IC50 is lower than 300 nM (strictly) for SLRRSSCFGGRIDSIRAQSGLGCNSFRY (disulfide 7-23, also called hANF(1-28) M12I, R14S, G16R) [ANF 25]
Outgoing: Met

Incoming: Report whether reported IC50 is lower than 300 nM (strictly) for [Mpa]F[dT]GSIDRIRAQSGLGCNSFRY (disulfide 1-17) [ANF 80]
Outgoing: Not met
